systemUnderTest: Trifunctional purine biosynthetic protein adenosine-3 (Homo sapiens) (UniProt P22102)
Sequence (whole entry): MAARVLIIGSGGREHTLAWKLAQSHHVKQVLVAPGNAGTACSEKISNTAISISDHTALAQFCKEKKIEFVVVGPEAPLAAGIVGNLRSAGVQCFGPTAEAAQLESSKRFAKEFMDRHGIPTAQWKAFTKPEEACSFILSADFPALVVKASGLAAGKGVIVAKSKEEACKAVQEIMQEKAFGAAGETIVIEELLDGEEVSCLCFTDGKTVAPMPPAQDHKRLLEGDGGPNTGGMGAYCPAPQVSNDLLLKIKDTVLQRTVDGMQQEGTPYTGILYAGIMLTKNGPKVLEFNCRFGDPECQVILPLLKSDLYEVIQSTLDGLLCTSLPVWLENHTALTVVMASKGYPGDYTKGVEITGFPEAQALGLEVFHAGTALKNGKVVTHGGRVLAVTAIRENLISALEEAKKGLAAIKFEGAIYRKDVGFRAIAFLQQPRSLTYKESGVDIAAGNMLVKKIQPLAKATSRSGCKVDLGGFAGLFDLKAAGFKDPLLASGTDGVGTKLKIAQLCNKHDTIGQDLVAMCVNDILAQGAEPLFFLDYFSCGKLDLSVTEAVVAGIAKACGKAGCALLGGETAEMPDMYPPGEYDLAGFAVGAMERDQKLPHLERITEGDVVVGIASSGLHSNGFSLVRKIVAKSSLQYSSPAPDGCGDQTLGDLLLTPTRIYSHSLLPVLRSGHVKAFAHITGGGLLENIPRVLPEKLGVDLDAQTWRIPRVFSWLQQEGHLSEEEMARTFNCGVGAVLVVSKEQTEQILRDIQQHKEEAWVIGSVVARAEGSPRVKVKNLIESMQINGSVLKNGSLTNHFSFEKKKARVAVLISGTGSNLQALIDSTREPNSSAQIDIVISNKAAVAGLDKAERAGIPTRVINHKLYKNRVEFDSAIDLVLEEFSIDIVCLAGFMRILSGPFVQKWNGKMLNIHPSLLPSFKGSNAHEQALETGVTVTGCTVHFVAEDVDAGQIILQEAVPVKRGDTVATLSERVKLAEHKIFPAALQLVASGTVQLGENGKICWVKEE
protocolDetails: In vitro inhibitory activity against Glycinamide ribonucleotide transformylase (GAR Tfase+GAR) following 30 min pre-incubation at 250 uM concentration
Would you mind labelling by inhibition? At or over 50% is MET, under is NOT MET.

smilesRepr: COC(=O)c1ccc(CN(CCCc2c(N)nc(N)nc2O)c2cc(F)ccc2[N+](=O)[O-])cc1
class: NOT MET
--
smilesRepr: COC(=O)c1ccc(CN(CCc2c(N)nc(N)nc2O)c2cc(F)cc(F)c2[N+](=O)[O-])cc1
class: NOT MET
--
smilesRepr: Nc1nc(N)c(CCCNc2cc(F)c([N+](=O)[O-])cc2[N+](=O)[O-])c(O)n1
class: MET
--
smilesRepr: COC(=O)c1ccc(CN(CCCc2c(N)nc(N)nc2O)c2cc(F)c(F)cc2[N+](=O)[O-])cc1
class: MET
--
smilesRepr: COC(=O)c1ccc(CN(CCc2c(N)nc(N)nc2O)c2cc(F)ccc2[N+](=O)[O-])cc1
class: MET
--
smilesRepr: COC(=O)c1ccc(CN(CCCc2c(N)nc(N)nc2O)c2cc(F)c([N+](=O)[O-])cc2[N+](=O)[O-])cc1
class: NOT MET
--
smilesRepr: COC(=O)c1ccc(CN(CCCc2c(N)nc(N)nc2O)c2cc(F)cc(F)c2[N+](=O)[O-])cc1
class: NOT MET
--
smilesRepr: COC(=O)c1ccc(CN(CCCc2c(N)nc(N)nc2O)c2ccc([N+](=O)[O-])c(F)c2F)cc1
class: MET
